- Tested on: 695427-040-R-J1-PDC complex spheroid viability
- experiment description: Anticancer human tumor 695427-040-R-J1-PDC patient-derived colon adenocarcinoma cell line growth inhibition [POLQ]
- assay context: second compound 10 µM; first compound 0.316 µM; active compounds read low
property name: viability, T/C (%)
Your answer should be a plain number; it is taken to be in %.

In: Consider the molecule C=CC(=O)N1CCN(c2nc(=O)n(-c3c(C)ccnc3C(C)C)c3nc(-c4c(O)cccc4F)c(F)cc23)C(C)C1 (stereo not given) + Cc1cccc(N(C)C(=O)C2C(O)CCN2c2nc(C)cc(C(F)(F)F)c2C#N)c1 and give its recorded viability, T/C.
Out: 87.5

In: Consider the molecule CCc1c2c(nc3ccc(O)cc13)-c1cc3c(c(=O)n1C2)COC(=O)[C@]3(O)CC + COC1C(OC(N)=O)C(O)C(Oc2ccc3c(O)c(NC(=O)c4ccc(O)c(CC=C(C)C)c4)c(=O)oc3c2C)OC1(C)C and give its recorded viability, T/C.
Out: 64.2

In: Consider the molecule O=c1[nH]cc(F)c(=O)[nH]1 + COC1C(OC(N)=O)C(O)C(Oc2ccc3c(O)c(NC(=O)c4ccc(O)c(CC=C(C)C)c4)c(=O)oc3c2C)OC1(C)C and give its recorded viability, T/C.
Out: 105

In: Consider the molecule CC(C)n1c(=O)n(C)c2cnc3cc(F)c(-c4ccc(OCCCN5CCCCC5)nc4)cc3c21 + Cc1cccc(N(C)C(=O)C2C(O)CCN2c2nc(C)cc(C(F)(F)F)c2C#N)c1 and give its recorded viability, T/C.
Out: 99.6

In: Consider the molecule COc1cc(C2c3cc4c(cc3C(OC3OC5COC(C)OC5C(O)C3O)C3COC(=O)C23)OCO4)cc(OC)c1O (stereo not given) + Nc1ccc(C#CCN(C(=O)Cc2ncc(C(F)(F)F)cc2C(F)(F)F)c2ccc(F)cc2)nn1 and give its recorded viability, T/C.
Out: 88.8

----------
- System: 695427-040-R-J1-PDC complex spheroid viability
- experiment description: Anticancer human tumor 695427-040-R-J1-PDC cell line growth inhibition [POLQ];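 note: spheroids exposed to compounds for seven days; 100% = DMSO vehicle control viability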
- assay context: second compound 1 µM; first compound 3.16 µM; active compounds read low
Would you mind telling me the reported viability, T/C of each entry?
Your answer should be a plain number; it is taken to be in %.

In: Consider the molecule CCc1cc2c(N3CCc4c(cc(Cn5ccnc5)cc4-c4cn(C)nc4C(F)(F)F)C3=O)ccnc2c(OC)n1 + Cc1cccc(N(C)C(=O)C2C(O)CCN2c2nc(C)cc(C(F)(F)F)c2C#N)c1 and give its recorded viability, T/C.
Out: 102

In: Consider the molecule CCc1cc2c(N3CCc4c(cc(Cn5ccnc5)cc4-c4cn(C)nc4C(F)(F)F)C3=O)cc(C)nc2c(OC)n1 + COC1C(OC(N)=O)C(O)C(Oc2ccc3c(O)c(NC(=O)c4ccc(O)c(CC=C(C)C)c4)c(=O)oc3c2C)OC1(C)C and give its recorded viability, T/C.
Out: 120

In: Consider the molecule COc1cccc2c1C(=O)c1c(O)c3c(c(O)c1C2=O)CC(O)(C(=O)CO)CC3OC1CC(N)C(O)C(C)O1 (stereo not given) + Nc1ccc(C#CCN(C(=O)Cc2ncc(C(F)(F)F)cc2C(F)(F)F)c2ccc(F)cc2)nn1 and give its recorded viability, T/C.
Out: 79.6

In: Consider the molecule O=c1[nH]cc(F)c(=O)[nH]1 + Cc1cccc(N(C)C(=O)C2C(O)CCN2c2nc(C)cc(C(F)(F)F)c2C#N)c1 and give its recorded viability, T/C.
Out: 93

In: Consider the molecule CC1COCCN1c1cc(C2(O)CC3CCC(C2)O3)c2cnn(-c3ccn[nH]3)c2n1 (stereo not given) + Cc1cccc(N(C)C(=O)C2C(O)CCN2c2nc(C)cc(C(F)(F)F)c2C#N)c1 and give its recorded viability, T/C.
Out: 56.8
